Tested on: ACHN
Assay: NCI tumour cell line growth inhibition, 48 h
The source made the active and inactive calls. Rule as the data show it: active = GI50 up to about 1.1 µM and inactive = higher.
Could you please pick one outcome from this set? active, inactive

Below are worked cases with known answers.
{"columns": ["compound", "assigned.class"],
 "data": [
  ["COc1ccc2cc3n(c2c1)CCc1cc(OC)c(OC)cc1-3", "inactive"],
  ["CC(C)CCCCCCCCCCCCC(=O)NCC(=O)NC1C(C)OC(Nc2[nH]cnc3ncnc2-3)C(O)C1O (stereo not given)", "active"],
  ["COc1ccc(N2C(=O)/C(=C\\c3cccc(Oc4ccccc4)c3)S(=O)(=O)C2c2ccccc2)cc1 (stereo not given)", "inactive"],
  ["CN(C)CC[N+]1=Nc2cccc3cccc(c23)N1", "inactive"]
]}

Moving on to the next compound.
What was the test verdict on O=C(CC1(O)C(=O)Nc2ccc([N+](=O)[O-])cc21)c1ccncc1 (stereo not given) ?
inactive

====

Tested on: LOX IMVI
Test: NCI tumour cell line growth inhibition, 48 h
The source made the active and inactive calls. No stated cut-off is given here; in the data, active = GI50 up to about 1.1 µM and inactive = higher.
GI50 values, listed per item

Examples with answers:
{"columns": ["compound", "assayed.system", "GI50"],
 "data": [
  ["Clc1ccccc1C1=NN(c2ccccc2)C2c3cc(Br)ccc3OCC12 (stereo unspecified)", "LOX IMVI", "> 10 µM (inactive)"],
  ["COc1cccc(OCC(=N/NC(=O)c2ccncc2)/N=C/c2cccnc2)c1", "LOX IMVI", "> 100 µM (inactive)"],
  ["c1ccc2c(c1)c1c(n2CCOCCN2CCOCC2)CCCC1", "LOX IMVI", "20.2 µM (inactive)"],
  ["O=C(CCc1cc(-c2ccccc2)[nH]c(=S)n1)Nc1ccccc1[N+](=O)[O-]", "LOX IMVI", "> 100 µM (inactive)"],
  ["O=C(NNC(=S)Nc1ccccc1)c1nsc2ccccc12", "LOX IMVI", "23.7 µM (inactive)"]
]}

In the following, a different compound is considered.
Specify GI50 for CSc1ccc2c(c1)N(CCCN(C)C)c1ccccc1S2 and stop.
11.6 µM (inactive)

====

GI50 values, listed per item
System: IGROV-1
Test: NCI tumour cell line growth inhibition, 48 h
Active and inactive are the calls of the source. No stated cut-off is given here; in the data, active = GI50 up to about 1.1 µM and inactive = higher.

{"columns": ["compound", "reported.endpoint", "measurement"],
 "data": [
  ["CCOC(=O)N1c2ccccc2N(C(=O)OCC)C1CC(=O)/C=C/c1ccccc1", "GI50", "3.63 µM (inactive)"],
  ["C[N+](C)(C)CCOC(=O)/C=C/c1c[nH]cn1", "GI50", "> 500 µM (inactive)"]
]}

Specify GI50 for c1ccc(Cc2cccc3cc(-c4ccc(-c5ccccc5)cc4)[nH]c23)cc1 and stop.
> 100 µM (inactive)

Specify GI50 for Cc1cc2c(C=O)n[nH]c2c(C#N)c1C and stop.
67 µM (inactive)

Specify GI50 for COc1ccc2cc3n(c2c1)CCc1cc(OC)c(OC)cc1-3 and stop.
> 100 µM (inactive)

Specify GI50 for Cn1c(=S)c2nc(SCc3cccnc3)[nH]c2n(C)c1=O and stop.
> 100 µM (inactive)

Specify GI50 for O=C(O)c1ccc(O)c(/N=N/c2cc(S(=O)(=O)O)c3ccccc3c2O)c1 and stop.
45.1 µM (inactive)

====

Test system: MOLT-4
Experiment: NCI tumour cell line growth inhibition, 48 h
Active and inactive are the calls of the source. Rule as the data show it: active = GI50 up to about 1.1 µM and inactive = higher.
Could you please pick one outcome from this set? yes (1) for active, no (0) for inactive

Below are worked cases with known answers.
{"columns": ["molecule", "assigned.class"],
 "data": [
  ["CCCNC1CC(n2cc(C)c(=O)[nH]c2=O)OC1CO (centres undefined)", "no (0)"],
  ["CC(C)(C)OC(=O)NC(Cc1ccccc1)C(=O)OCN1C(=O)C2C3C=CC(C2C1=O)C1C2C(=O)N(COC(=O)C(Cc4ccccc4)NC(=O)OC(C)(C)C)C(=O)C2C31 (centres undefined)", "no (0)"],
  ["O=S(=O)(O)Oc1cc2c(c(OS(=O)(=O)O)c1)C[C@H](OS(=O)(=O)O)[C@@H](c1ccc(OS(=O)(=O)O)c(OS(=O)(=O)O)c1)O2", "no (0)"],
  ["CCOC(=O)NC1C2CC(=O)OC(O2)C1OC(C)=O (centres undefined)", "no (0)"],
  ["COC(=O)[C@@H]1[C@@H](c2cccc(Cl)c2)[C@H](C(=O)OC)C2(C[C@@]1(C)O)NCCS2 (some centres undefined)", "yes (1)"],
  ["N=C1N(S(=O)(=O)c2ccccc2)[C@@H](Cc2ccccc2)[C@H](c2ccccc2)C1(c1ccccc1)c1ccccc1", "no (0)"],
  ["CC1=NN(c2cccc(Cl)c2)C2(SCC(=O)N2c2nc3ccccc3s2)C1=CC=Cc1ccccc1 (centres undefined)", "no (0)"],
  ["O=S(=O)(O)c1cc(/N=N/c2cc(S(=O)(=O)O)c3ccccc3c2O)ccc1/C=C/c1ccc(/N=N/c2cc(S(=O)(=O)O)c3ccccc3c2O)cc1S(=O)(=O)O", "no (0)"],
  ["Cc1nnc2n1-c1ccccc1-c1[nH]c3ccccc3c1C2", "no (0)"],
  ["Fc1ccc(C2SCc3nc4ccccc4n32)cc1F (centres undefined)", "no (0)"]
]}

What was the test verdict on C=CCOC1OC(CO[Si](C)(C)C(C)(C)C)C(OCc2ccccc2)C(OCc2ccccc2)C1OCc1ccccc1 (centres undefined) ?
no (0)

What was the test verdict on CCN(CC)CCn1c2cc3c(cc2c(=O)c2cccnc21)OCO3 ?
no (0)

What was the test verdict on Cc1cccc2c(=O)c3c(O)cc(O)cc3n(C)c12 ?
no (0)

What was the test verdict on CCOC(=O)C(C(=O)c1ccccc1C(=O)OC)=P(c1ccccc1)(c1ccccc1)c1ccccc1 ?
no (0)

What was the test verdict on Cc1[nH]c(=O)nc(N(CCO)/N=C/c2ccccc2Cl)c1C(=O)Nc1cc(Cl)cc(Cl)c1 ?
no (0)

What was the test verdict on CC1(C)CCCC2(C)C3=C(CCC12)C(=O)OC3 (centres undefined) ?
no (0)
